Reference source: ChEMBL document CHEMBL4152254

biological target: Neuronal acetylcholine receptor subunit alpha-7 (Rattus norvegicus); assay: Displacement of [125I]alpha-bungarotoxin from alpha7 nAChR in rat hippocampal membranes
Sequence (Q05941 whole entry): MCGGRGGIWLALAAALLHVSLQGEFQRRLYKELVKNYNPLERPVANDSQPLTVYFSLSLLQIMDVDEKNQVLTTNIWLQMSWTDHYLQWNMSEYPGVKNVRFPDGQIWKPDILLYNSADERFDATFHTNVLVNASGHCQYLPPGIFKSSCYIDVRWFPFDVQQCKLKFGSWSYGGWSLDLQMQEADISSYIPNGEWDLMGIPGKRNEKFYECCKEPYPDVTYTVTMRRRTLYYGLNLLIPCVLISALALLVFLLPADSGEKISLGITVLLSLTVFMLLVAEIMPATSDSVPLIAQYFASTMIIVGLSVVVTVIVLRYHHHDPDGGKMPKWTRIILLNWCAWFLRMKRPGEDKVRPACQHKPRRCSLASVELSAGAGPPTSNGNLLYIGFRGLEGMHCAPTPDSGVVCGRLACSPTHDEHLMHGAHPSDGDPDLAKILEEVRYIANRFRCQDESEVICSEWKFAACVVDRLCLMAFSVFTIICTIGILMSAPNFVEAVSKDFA
The reader will find reported Ki values listed item by item below.
property_name: Ki (nM)

{"columns": ["smi", "property_name", "data_value"],
 "data": [
  ["Cc1ccc(Nc2ccc(N3CC4CC(C3)N4)cn2)cc1", "Ki", 88800],
  ["CN(c1ccccc1)c1ccc(N2CC3CC(C2)N3)nn1", "Ki", 101000],
  ["c1ccc(Nc2cncc(N3CC4CC(C3)N4)c2)cc1", "Ki", 26.9],
  ["FC(F)(F)c1ccc(Nc2cncc(N3CC4CC(C3)N4)c2)cc1", "Ki", 186],
  ["c1ccc(Nc2ccc(N3CC4CC(C3)N4)cn2)cc1", "Ki", 475],
  ["Clc1ccc(Nc2ccc(N3CC4CC(C3)N4)cn2)cc1Cl", "Ki", 2040],
  ["Fc1ccc(Nc2ccc(N3CC4CC(C3)N4)cn2)cc1", "Ki", 1300],
  ["Clc1ccc(Nc2ccc(N3CC4CC(C3)N4)nn2)cc1", "Ki", 17300],
  ["O=[N+]([O-])c1ccc(Nc2cncc(N3CC4CC(C3)N4)c2)cc1", "Ki", 241],
  ["Clc1ccc(Nc2ccc(N3CC4CC(C3)N4)cn2)cc1", "Ki", 823],
  ["FC(F)(F)c1ccc(Nc2ccc(N3CC4CC(C3)N4)nn2)cc1", "Ki", 2030],
  ["Clc1cccc(Nc2cncc(N3CC4CC(C3)N4)c2)c1", "Ki", 1200]
]}
